Test system: green foxtail (Setaria viridis, SETVI)
Assay: Post-emerge test, greenhouse herbicide activity screening
Type: in vivo
Conditions: post-emerge, 63 g ai/ha, 14 days after application, rating scale 0-100
Provide the recorded phytotoxicity rating SETVI for the entries that follow.
Answers are plain numbers.

>  <Compound>
COc1c(Cl)cc(F)c(-n2c(=O)cc(C(F)(F)F)n(C)c2=O)c1NC(=O)c1ccc2ccccc2c1

>  <Assay endpoint>
phytotoxicity rating SETVI

>  <Reported result>
30

$$$$
>  <Compound>
COC(=O)N(C(=O)OC)c1c(OC)c(Cl)cc(F)c1-n1c(=O)cc(C(F)(F)F)n(C)c1=O

>  <Assay endpoint>
phytotoxicity rating SETVI

>  <Reported result>
0

$$$$
>  <Compound>
Cc1c(Cl)cc(F)c(-n2c(=O)cc(C(F)(F)F)n(C)c2=O)c1NC(=O)OCCc1ccccc1

>  <Assay endpoint>
phytotoxicity rating SETVI

>  <Reported result>
50

$$$$
>  <Compound>
COc1c(Cl)cc(F)c(-n2c(=O)cc(C(F)(F)F)n(C)c2=O)c1NC(=O)c1ccccc1Cl

>  <Assay endpoint>
phytotoxicity rating SETVI

>  <Reported result>
20

$$$$
>  <Compound>
COc1c(Cl)cc(F)c(-n2c(=O)cc(C(F)(F)F)n(C)c2=O)c1NC(=O)COC(C)=O

>  <Assay endpoint>
phytotoxicity rating SETVI

>  <Reported result>
0

$$$$
>  <Compound>
COc1c(Cl)cc(F)c(-n2c(=O)cc(C(F)(F)F)n(C)c2=O)c1NC(=O)c1cccc(F)c1F

>  <Assay endpoint>
phytotoxicity rating SETVI

>  <Reported result>
20

$$$$

Answer for every listed entry: what is its phytotoxicity rating SETVI? The entries follow.
1. COc1c(Cl)cc(F)c(-n2c(=O)cc(C(F)(F)F)n(C)c2=O)c1NC(=O)c1ccc(F)cc1F
2. COc1c(Cl)cc(F)c(-n2c(=O)cc(C(F)(F)F)n(C)c2=O)c1NC(=O)c1ccc(C(F)(F)F)cc1

*A*
[50, 50]

Answer for every listed entry: what is its phytotoxicity rating SETVI? The entries follow.
1. CCOC(=O)C(C)Oc1c(Cl)cc(F)c(-n2c(=O)cc(C(F)(F)F)n(C)c2=O)c1NC(=O)c1ccc2ccccc2c1 (stereo not drawn)
2. Cc1c(Cl)cc(F)c(-n2c(=O)cc(C(F)(F)F)n(C)c2=O)c1NC(=O)c1ccc2ccccc2c1
3. COc1c(Cl)cc(F)c(-n2c(=O)cc(C(F)(F)F)n(C)c2=O)c1NC(=O)OCc1ccc(C(F)(F)F)cc1
4. COc1c(Cl)cc(F)c(-n2c(=O)cc(C(F)(F)F)n(C)c2=O)c1NC(=O)OCc1ccc(C)c(C)c1
5. Cc1cccc(C)c1OC(=O)Nc1c(C)c(Cl)cc(F)c1-n1c(=O)cc(C(F)(F)F)n(C)c1=O

*A*
0
90
0
20
10

Answer for every listed entry: what is its phytotoxicity rating SETVI? The entries follow.
1. COc1c(Cl)cc(F)c(-n2c(=O)cc(C(F)(F)F)n(C)c2=O)c1NC(=O)c1cc([N+](=O)[O-])cc([N+](=O)[O-])c1
2. COc1c(Cl)cc(F)c(-n2c(=O)cc(C(F)(F)F)n(C)c2=O)c1NC(=O)OCc1cc(F)ccc1F

*A*
20
80
